Target desc: Human CaV2.2 channels (Homo sapiens, UniProt Q00975)
Construct: expressed in transfected cells
Sequence (Q00975 whole entry): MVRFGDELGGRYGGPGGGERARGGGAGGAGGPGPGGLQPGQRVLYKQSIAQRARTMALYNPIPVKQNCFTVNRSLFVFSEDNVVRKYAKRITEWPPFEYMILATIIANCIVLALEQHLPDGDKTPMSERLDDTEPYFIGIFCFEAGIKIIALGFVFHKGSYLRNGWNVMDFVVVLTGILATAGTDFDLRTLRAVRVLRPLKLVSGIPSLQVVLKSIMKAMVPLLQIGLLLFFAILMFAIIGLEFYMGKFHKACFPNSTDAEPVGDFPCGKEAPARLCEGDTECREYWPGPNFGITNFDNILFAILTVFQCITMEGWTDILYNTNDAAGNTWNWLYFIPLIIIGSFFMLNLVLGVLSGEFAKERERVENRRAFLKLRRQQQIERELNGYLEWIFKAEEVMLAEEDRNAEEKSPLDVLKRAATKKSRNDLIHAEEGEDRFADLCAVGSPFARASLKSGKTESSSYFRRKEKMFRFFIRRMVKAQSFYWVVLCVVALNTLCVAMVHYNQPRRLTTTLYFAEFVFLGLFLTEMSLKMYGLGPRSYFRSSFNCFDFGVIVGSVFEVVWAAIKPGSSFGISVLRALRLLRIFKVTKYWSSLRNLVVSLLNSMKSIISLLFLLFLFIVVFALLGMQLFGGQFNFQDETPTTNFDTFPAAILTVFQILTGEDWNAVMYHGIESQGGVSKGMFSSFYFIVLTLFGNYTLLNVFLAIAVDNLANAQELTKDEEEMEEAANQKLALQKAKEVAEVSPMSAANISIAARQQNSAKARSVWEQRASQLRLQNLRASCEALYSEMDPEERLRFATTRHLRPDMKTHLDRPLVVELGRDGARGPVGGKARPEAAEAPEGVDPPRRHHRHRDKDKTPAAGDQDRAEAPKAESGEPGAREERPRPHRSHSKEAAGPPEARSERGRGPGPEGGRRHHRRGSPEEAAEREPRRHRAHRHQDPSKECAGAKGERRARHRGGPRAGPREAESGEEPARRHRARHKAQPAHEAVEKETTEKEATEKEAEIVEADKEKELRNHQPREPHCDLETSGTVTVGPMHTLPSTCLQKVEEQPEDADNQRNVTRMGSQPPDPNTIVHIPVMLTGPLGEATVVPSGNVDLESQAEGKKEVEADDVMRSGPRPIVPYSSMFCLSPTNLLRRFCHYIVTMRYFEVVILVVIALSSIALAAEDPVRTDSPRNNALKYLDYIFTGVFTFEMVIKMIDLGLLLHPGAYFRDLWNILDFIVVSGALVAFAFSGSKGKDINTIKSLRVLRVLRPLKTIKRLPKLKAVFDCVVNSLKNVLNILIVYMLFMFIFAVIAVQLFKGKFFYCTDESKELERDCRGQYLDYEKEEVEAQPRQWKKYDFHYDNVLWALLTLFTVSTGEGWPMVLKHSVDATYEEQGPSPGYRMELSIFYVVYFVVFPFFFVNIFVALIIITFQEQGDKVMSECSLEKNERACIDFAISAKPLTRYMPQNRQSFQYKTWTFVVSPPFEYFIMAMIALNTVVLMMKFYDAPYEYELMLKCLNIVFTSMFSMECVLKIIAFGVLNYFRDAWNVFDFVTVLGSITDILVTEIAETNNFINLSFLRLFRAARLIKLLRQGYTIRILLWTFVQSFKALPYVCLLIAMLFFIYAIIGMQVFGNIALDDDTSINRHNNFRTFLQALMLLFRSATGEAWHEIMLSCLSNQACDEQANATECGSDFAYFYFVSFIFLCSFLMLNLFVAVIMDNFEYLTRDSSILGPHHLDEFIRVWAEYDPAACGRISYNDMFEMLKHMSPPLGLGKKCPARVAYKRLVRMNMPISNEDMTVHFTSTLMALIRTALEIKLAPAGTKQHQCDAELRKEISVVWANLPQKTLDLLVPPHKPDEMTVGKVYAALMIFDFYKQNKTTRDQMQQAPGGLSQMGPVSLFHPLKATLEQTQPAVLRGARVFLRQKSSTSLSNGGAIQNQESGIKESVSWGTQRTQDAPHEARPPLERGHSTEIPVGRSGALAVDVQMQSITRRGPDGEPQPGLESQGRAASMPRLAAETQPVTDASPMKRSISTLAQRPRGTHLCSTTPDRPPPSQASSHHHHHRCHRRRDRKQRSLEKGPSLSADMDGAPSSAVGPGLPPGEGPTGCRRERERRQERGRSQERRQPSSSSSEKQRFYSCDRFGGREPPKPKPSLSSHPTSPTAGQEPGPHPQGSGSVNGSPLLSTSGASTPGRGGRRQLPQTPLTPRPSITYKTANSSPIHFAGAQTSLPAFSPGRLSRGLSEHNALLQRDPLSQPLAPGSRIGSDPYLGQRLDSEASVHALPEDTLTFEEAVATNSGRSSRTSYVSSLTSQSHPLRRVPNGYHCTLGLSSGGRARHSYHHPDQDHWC
Sequence (P54289 25-1103, further chain): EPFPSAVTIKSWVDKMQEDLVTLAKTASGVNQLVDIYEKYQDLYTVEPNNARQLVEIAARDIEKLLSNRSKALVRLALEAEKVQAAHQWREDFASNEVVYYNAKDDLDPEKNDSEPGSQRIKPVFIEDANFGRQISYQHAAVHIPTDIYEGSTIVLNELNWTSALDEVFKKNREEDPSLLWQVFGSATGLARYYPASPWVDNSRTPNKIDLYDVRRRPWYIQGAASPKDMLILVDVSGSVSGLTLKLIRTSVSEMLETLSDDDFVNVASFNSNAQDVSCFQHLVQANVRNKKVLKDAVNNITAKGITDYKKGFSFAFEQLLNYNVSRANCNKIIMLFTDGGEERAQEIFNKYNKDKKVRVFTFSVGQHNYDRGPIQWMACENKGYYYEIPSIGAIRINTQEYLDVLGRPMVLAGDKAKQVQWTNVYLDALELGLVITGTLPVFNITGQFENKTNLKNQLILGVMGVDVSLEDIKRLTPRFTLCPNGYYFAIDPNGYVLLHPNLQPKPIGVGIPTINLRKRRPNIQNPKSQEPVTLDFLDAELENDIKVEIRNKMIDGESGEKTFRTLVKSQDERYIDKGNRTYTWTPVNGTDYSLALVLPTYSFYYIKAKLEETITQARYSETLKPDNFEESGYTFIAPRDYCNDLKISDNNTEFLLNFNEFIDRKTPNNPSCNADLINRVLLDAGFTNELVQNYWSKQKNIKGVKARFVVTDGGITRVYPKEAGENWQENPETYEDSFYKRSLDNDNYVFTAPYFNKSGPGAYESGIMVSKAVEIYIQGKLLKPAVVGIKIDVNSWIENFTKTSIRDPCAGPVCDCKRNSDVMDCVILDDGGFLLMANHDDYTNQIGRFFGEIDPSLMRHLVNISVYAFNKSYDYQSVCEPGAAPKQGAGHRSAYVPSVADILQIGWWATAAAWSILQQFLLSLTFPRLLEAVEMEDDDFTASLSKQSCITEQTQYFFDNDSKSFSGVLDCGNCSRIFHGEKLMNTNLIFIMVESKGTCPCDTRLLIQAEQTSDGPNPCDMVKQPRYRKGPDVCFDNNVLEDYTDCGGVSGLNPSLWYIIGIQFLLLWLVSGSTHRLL
Sequence (P54284 whole entry, further chain): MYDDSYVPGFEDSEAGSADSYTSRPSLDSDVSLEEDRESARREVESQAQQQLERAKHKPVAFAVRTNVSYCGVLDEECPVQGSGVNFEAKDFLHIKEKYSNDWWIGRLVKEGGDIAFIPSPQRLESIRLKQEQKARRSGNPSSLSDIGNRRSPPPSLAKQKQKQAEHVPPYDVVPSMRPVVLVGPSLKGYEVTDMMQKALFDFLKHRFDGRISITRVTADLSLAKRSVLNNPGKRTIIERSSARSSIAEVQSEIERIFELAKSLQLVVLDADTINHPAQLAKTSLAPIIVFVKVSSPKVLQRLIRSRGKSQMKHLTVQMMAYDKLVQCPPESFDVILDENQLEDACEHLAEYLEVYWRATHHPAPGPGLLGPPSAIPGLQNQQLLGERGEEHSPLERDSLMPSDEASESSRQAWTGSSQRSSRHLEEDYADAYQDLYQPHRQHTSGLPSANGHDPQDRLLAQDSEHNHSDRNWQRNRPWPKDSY
Assay overview: Fluorescent assay for CaV2.2 channels using potassium depolarization to induce channel opening (FLIPR, Fluo-4)
Assay type: cell-based
Conditions used: 3 μM test compound, 30 mM KCl, HEK293 cells stably expressing human CaV2.2; read-out: %-Inhib (CaV2.2) @3 μM @30 mM KCl
Experimental endpoint: inhibition at 3 µM

chem_smiles=CS(=O)(=O)C1CN(C(=O)c2c(-c3ccc(Cl)cc3)cc(C(F)(F)F)n2Cc2ccccc2)C1 experimental_value="75 to 95%"
chem_smiles=CCc1c(-c2ccc(Cl)cc2)c(C(=O)N(C)CC(C)(C)C)n(Cc2ccccc2)c1C(F)(F)F experimental_value="75 to 95%"
chem_smiles=Cc1c(-c2ccc(Cl)c(F)c2)c(C(=O)N(C)C2CC2)n(Cc2ccccc2)c1C(F)(F)F experimental_value="75 to 95%"
chem_smiles=O=C1CN(C(=O)c2c(-c3ccc(Cl)cc3)cc(C(F)(F)F)n2Cc2ccccc2)CCN1 experimental_value="75 to 95%"
chem_smiles=O=C(c1c(-c2ccc(Cl)cc2)cc(C(F)(F)F)n1Cc1ccccc1)N1CC(O)C1 experimental_value="75 to 95%"

Entry `Cc1c(-c2ccc(Cl)cc2)c(C(=O)N(C)CC2(CO)CCC2)n(Cc2ccccc2)c1C(F)(F)F` , tested on Human CaV2.2 channels (Homo sapiens, UniProt Q00975), has a reported inhibition at 3 µM of > 95%

Entry `CC(C)(CO)CNC(=O)c1c(-c2ccc(Cl)cc2)cc(C(F)(F)F)n1Cc1ccccc1` , tested on Human CaV2.2 channels (Homo sapiens, UniProt Q00975), has a reported inhibition at 3 µM of > 95%

Entry `Cc1c(-c2ccc(Cl)cc2)c(C(=O)N2CC(F)(F)C2)n(Cc2ccccc2)c1C(F)(F)F` , tested on Human CaV2.2 channels (Homo sapiens, UniProt Q00975), has a reported inhibition at 3 µM of 75 to 95%

* * *

Target desc: Human CaV2.2 channels (Homo sapiens)
Construct: expressed in transfected cells
Assay overview: Fluorescent assay for CaV2.2 channels using potassium depolarization to induce channel opening (FLIPR, Fluo-4)
Format: cell-based
Conditions used: 3 μM test compound, 30 mM KCl, HEK293 cells stably expressing human CaV2.2; read-out: %-Inhib (CaV2.2) @3 μM @30 mM KCl
Method: In the process, the Ca^2+ influx is quantified in the FLIPR assay with the aid of a Ca^2+-sensitive dye (type Fluo-4, Molecular Probes Europe BV, Leiden, the Netherlands) in a fluorescent imaging plate reader (FLIPR 3, Molecular Devices, Sunnyvale, USA), as described hereinafter. […] Plates were incubated at 37° C. […] Fluorescence intensity was measured on a FLIPR 3 instrument (Molecular Devices Corp., Sunnyvale, Calif.) with excitation at 480 nm and emission at 535 nm. […]
Experimental endpoint: inhibition at 3 µM

Consider the reported inhibition at 3 µM for these molecules:
chem_smiles=Cc1c(-c2ccc(OC(F)(F)F)cc2)c(C(=O)N(C)CC(C)(C)C)n(Cc2ccccc2)c1C(F)(F)F experimental_endpoint="inhibition at 3 µM" experimental_value="30 to 40%"
chem_smiles=Cc1c(-c2ccc(Cl)cc2)c(C(=O)N2CCOCC2)n(Cc2ccccc2)c1C(F)(F)F experimental_endpoint="inhibition at 3 µM" experimental_value="> 95%"
chem_smiles=CN(CC(C)(CO)CO)C(=O)c1c(-c2ccc(Cl)cc2)cc(C(F)(F)F)n1Cc1ccccc1 experimental_endpoint="inhibition at 3 µM" experimental_value="> 95%"
chem_smiles=CN(CCCS(C)(=O)=O)C(=O)c1c(-c2ccc(Cl)cc2)cc(C(F)(F)F)n1Cc1ccccc1 experimental_endpoint="inhibition at 3 µM" experimental_value="> 95%"
chem_smiles=Cc1c(-c2ccc(Cl)cc2F)c(C(=O)N(C)CC(C)(C)C)n(Cc2ccccc2)c1C(F)(F)F experimental_endpoint="inhibition at 3 µM" experimental_value="> 95%"
chem_smiles=CN(CCS(C)(=O)=O)C(=O)c1c(-c2ccc(Cl)cc2)cc(C(F)(F)F)n1Cc1cccc(Cl)c1 experimental_endpoint="inhibition at 3 µM" experimental_value="75 to 95%"

# inhibition at 3 µM (molecule: `CC(=O)N1CCN(C(=O)c2c(-c3ccc(Cl)cc3)cc(C(F)(F)F)n2Cc2ccccc2)CC1` ) is > 95%

# inhibition at 3 µM (molecule: `CN(Cc1ccncn1)C(=O)c1c(-c2ccc(Cl)cc2)cc(C(F)(F)F)n1Cc1ccccc1` ) is > 95%

* * *

Target desc: Human CaV2.2 channels (Homo sapiens, UniProt Q00975)
Construct: expressed in transfected cells
Assay overview: Fluorescent assay for CaV2.2 channels using potassium depolarization to induce channel opening (FLIPR, Fluo-4)
Type: cell-based
Conditions used: 3 μM test compound, 30 mM KCl, HEK293 cells stably expressing human CaV2.2; read-out: %-Inhib (CaV2.2) @3 μM @30 mM KCl
Experimental: In the process, the Ca^2+ influx is quantified in the FLIPR assay with the aid of a Ca^2+-sensitive dye (type Fluo-4, Molecular Probes Europe BV, Leiden, the Netherlands) in a fluorescent imaging plate reader (FLIPR 3, Molecular Devices, Sunnyvale, USA), as described hereinafter. […] Plates were incubated at 37° C. […] Fluorescence intensity was measured on a FLIPR 3 instrument (Molecular Devices Corp., Sunnyvale, Calif.) with excitation at 480 nm and emission at 535 nm. […]
Experimental endpoint: inhibition at 3 µM

Consider the reported inhibition at 3 µM for these compounds:
compound="Cc1c(-c2ccc(Cl)cc2)c(C(=O)N(C)Cc2cnccn2)n(Cc2ccccc2)c1C(F)(F)F [SC-146]" experimental_endpoint="inhibition at 3 µM" experimental_value="75 to 95%"
compound="Cc1c(-c2ccc(C(F)(F)F)cc2)c(C(=O)N2CC(F)(F)C2)n(Cc2ccccc2)c1C(F)(F)F [SC-96]" experimental_endpoint="inhibition at 3 µM" experimental_value="40 to 75%"
compound="Cc1c(-c2ccc(Cl)c(F)c2)c(C(=O)N(C)CC(C)(C)C)n(Cc2ccccc2)c1C(F)(F)F [SC-250]" experimental_endpoint="inhibition at 3 µM" experimental_value="40 to 75%"
compound="CN(CCS(C)(=O)=O)C(=O)c1c(-c2ccc(Cl)cc2)cc(C(F)(F)F)n1Cc1ccccc1 [SC-67]" experimental_endpoint="inhibition at 3 µM" experimental_value="> 95%"
compound="Cc1c(-c2ccc(Cl)cc2F)c(C(=O)N(C)CCCS(C)(=O)=O)n(Cc2ccccc2)c1C(F)(F)F [SC-161]" experimental_endpoint="inhibition at 3 µM" experimental_value="> 95%"

# inhibition at 3 µM (compound: Cc1c(-c2ccc(Cl)cc2F)c(C(=O)N2CCS(=O)(=O)CC2)n(Cc2ccccc2)c1C(F)(F)F [SC-173] ) is > 95%

# inhibition at 3 µM (compound: Cc1c(-c2ccc(Cl)cc2F)c(C(=O)N(C)C2CCS(=O)(=O)CC2)n(Cc2ccccc2)c1C(F)(F)F [SC-160] ) is > 95%

# inhibition at 3 µM (compound: CN(CC1(CO)CCC1)C(=O)c1c(-c2ccc(Cl)cc2)cc(C(F)(F)F)n1Cc1ccccc1 [SC-179] ) is > 95%

# inhibition at 3 µM (compound: CN(CC(C)(C)C)C(=O)c1c(-c2ccc(Cl)cc2)cc(C(F)(F)F)n1Cc1cccc(Cl)c1 [SC-71] ) is 75 to 95%

# inhibition at 3 µM (compound: Cc1c(-c2ccc(OC(F)(F)F)cc2)c(C(=O)N(C)C2CC2)n(Cc2ccccc2)c1C(F)(F)F [SC-238] ) is 40 to 75%

* * *

Target desc: Human CaV2.2 channels (Homo sapiens)
Construct: expressed in transfected cells
Assay overview: Fluorescent assay for CaV2.2 channels using potassium depolarization to induce channel opening (FLIPR, Fluo-4)
Type: cell-based
Conditions used: 3 μM test compound, 30 mM KCl, HEK293 cells stably expressing human CaV2.2; read-out: %-Inhib (CaV2.2) @3 μM @30 mM KCl
Experimental endpoint: inhibition at 3 µM

Consider the reported inhibition at 3 µM for these compounds:
compound=Cc1c(-c2ccc(F)c(Cl)c2)c(C(=O)N(C)C(C)(C)CO)n(Cc2ccccc2)c1C(F)(F)F experimental_value="75 to 95%"
compound=Cc1c(-c2ccc(Cl)c(F)c2)c(C(=O)N(C)CCS(C)(=O)=O)n(Cc2ccccc2)c1C(F)(F)F experimental_value="75 to 95%"

Entry `CN(CCC(C)(C)C)C(=O)c1c(-c2ccc(Cl)cc2)cc(C(F)(F)F)n1Cc1ccccc1` , tested on Human CaV2.2 channels (Homo sapiens), has a reported inhibition at 3 µM of 40 to 75%

Entry Cc1c(-c2ccc(Cl)cc2)c(C(=O)N(C)CC2CCC[C@@H]2O)n(Cc2ccccc2)c1C(F)(F)F (stereo partly drawn) , tested on Human CaV2.2 channels (Homo sapiens), has a reported inhibition at 3 µM of > 95%
